MEASUREMENT_NAME: melting point

>  <MOLECULE>
O=C1C(Br)CCN1c1cccc([N+](=O)[O-])c1 (centres undefined)

>  <MEASUREMENT_NAME>
melting point

>  <RECORDED_VALUE>
104 to 106 °C

$$$$
>  <MOLECULE>
O=C(O)CCOc1ccc(F)cc1F

>  <MEASUREMENT_NAME>
melting point

>  <RECORDED_VALUE>
76 to 78 °C

$$$$
>  <MOLECULE>
C=CCn1c(=O)c2ccccc2n2c(S)nnc12

>  <MEASUREMENT_NAME>
melting point

>  <RECORDED_VALUE>
177 to 179 °C

$$$$
>  <MOLECULE>
O=C(O)Cn1ccc(C(F)(F)F)n1

>  <MEASUREMENT_NAME>
melting point

>  <RECORDED_VALUE>
58 to 64 °C

$$$$
>  <MOLECULE>
O=C(O)C1(c2ccc(F)cc2F)CCOCC1

>  <MEASUREMENT_NAME>
melting point

>  <RECORDED_VALUE>
134 to 136 °C

$$$$
>  <MOLECULE>
Cc1nn(-c2ccccc2)c(Oc2ccccc2)c1C=O

>  <MEASUREMENT_NAME>
melting point

>  <RECORDED_VALUE>
92 to 94 °C

$$$$
>  <MOLECULE>
c1ccc(CC2CCN(Cc3ccccc3)CC2)cc1

>  <MEASUREMENT_NAME>
melting point

>  <RECORDED_VALUE>
65 to 67 °C

$$$$
>  <MOLECULE>
FC(F)(F)c1ccc(-n2nnnc2CCl)cc1

>  <MEASUREMENT_NAME>
melting point

>  <RECORDED_VALUE>
56 to 58 °C

$$$$
>  <MOLECULE>
CC(=O)c1ccc(S(=O)(=O)NCc2ccc(F)cc2)cc1

>  <MEASUREMENT_NAME>
melting point

>  <RECORDED_VALUE>
149 to 151 °C

$$$$
>  <MOLECULE>
Cc1ccc(C)c(NC(N)=S)c1

>  <MEASUREMENT_NAME>
melting point

>  <RECORDED_VALUE>
140 to 142 °C

$$$$
>  <MOLECULE>
c1ccc(CN(Cc2ccccc2)Cn2nnc3ccccc32)cc1

>  <MEASUREMENT_NAME>
melting point

>  <RECORDED_VALUE>
118 to 120 °C

$$$$
>  <MOLECULE>
Cc1c([N+](=O)[O-])cccc1S(=O)(=O)Cl

>  <MEASUREMENT_NAME>
melting point

>  <RECORDED_VALUE>
47 to 49 °C

$$$$
>  <MOLECULE>
CC(=O)CC(=O)Nc1cccc(C)c1

>  <MEASUREMENT_NAME>
melting point

>  <RECORDED_VALUE>
57 to 59 °C

$$$$
>  <MOLECULE>
NC(=O)C1CCN(c2ccccc2N)CC1

>  <MEASUREMENT_NAME>
melting point

>  <RECORDED_VALUE>
199 to 201 °C

$$$$
>  <MOLECULE>
COC(=O)Nc1ccc(CO)cc1

>  <MEASUREMENT_NAME>
melting point

>  <RECORDED_VALUE>
79 to 81 °C

$$$$
>  <MOLECULE>
CCCn1c(S)nc2cc(S(N)(=O)=O)ccc21

>  <MEASUREMENT_NAME>
melting point

>  <RECORDED_VALUE>
190 to 194 °C

$$$$
>  <MOLECULE>
O=C(O)C=CC(=O)Nc1ccc(F)c(Cl)c1

>  <MEASUREMENT_NAME>
melting point

>  <RECORDED_VALUE>
189 to 191 °C

$$$$
>  <MOLECULE>
COc1ccc2c(c1)CC(C(=O)O)CO2 (centres undefined)

>  <MEASUREMENT_NAME>
melting point

>  <RECORDED_VALUE>
120 to 122 °C

$$$$
>  <MOLECULE>
Cc1cc(C(=O)N2CCCC2)ccc1N

>  <MEASUREMENT_NAME>
melting point

>  <RECORDED_VALUE>
124 to 126 °C

$$$$
>  <MOLECULE>
COc1ccc(C=NO)cc1OCc1ccccc1

>  <MEASUREMENT_NAME>
melting point

>  <RECORDED_VALUE>
75 to 77 °C

$$$$
>  <MOLECULE>
Nc1cc(C(=O)O)ccc1NCCCN1CCOCC1

>  <MEASUREMENT_NAME>
melting point

>  <RECORDED_VALUE>
216 to 218 °C

$$$$
>  <MOLECULE>
Cc1nc(Cl)nc(C)c1Cc1ccccc1

>  <MEASUREMENT_NAME>
melting point

>  <RECORDED_VALUE>
42 to 44 °C

$$$$
>  <MOLECULE>
CC(C)(C)OC(=O)NC(C(N)=NO)C1CC1 (centres undefined)

>  <MEASUREMENT_NAME>
melting point

>  <RECORDED_VALUE>
147 to 149 °C

$$$$
>  <MOLECULE>
O=C(c1[nH]nc2ccccc12)N1CCNCC1

>  <MEASUREMENT_NAME>
melting point

>  <RECORDED_VALUE>
179 to 181 °C

$$$$
>  <MOLECULE>
CCOC(=O)Nc1ccc(NC(C)c2ccccn2)cc1 (centres undefined)

>  <MEASUREMENT_NAME>
melting point

>  <RECORDED_VALUE>
145 to 147 °C

$$$$
>  <MOLECULE>
Cc1sc(C(=O)O)cc1-c1ccc(F)cc1

>  <MEASUREMENT_NAME>
melting point

>  <RECORDED_VALUE>
156 to 158 °C

$$$$
>  <MOLECULE>
CC(=O)c1ccc2[nH]c(=O)[nH]c2c1

>  <MEASUREMENT_NAME>
melting point

>  <RECORDED_VALUE>
264 to 266 °C

$$$$
>  <MOLECULE>
CN(C)C(=O)c1ccc(O)cc1

>  <MEASUREMENT_NAME>
melting point

>  <RECORDED_VALUE>
156 to 158 °C

$$$$
>  <MOLECULE>
CC(Oc1ccc(C(=O)O)cn1)c1ccccc1 (centres undefined)

>  <MEASUREMENT_NAME>
melting point

>  <RECORDED_VALUE>
113 to 115 °C

$$$$
>  <MOLECULE>
CN(c1ccccc1)c1ccc(C=O)cc1[N+](=O)[O-]

>  <MEASUREMENT_NAME>
melting point

>  <RECORDED_VALUE>
95 to 97 °C

$$$$
>  <MOLECULE>
CC(O)c1cn(-c2ccccc2)nn1 (centres undefined)

>  <MEASUREMENT_NAME>
melting point

>  <RECORDED_VALUE>
75 to 77 °C

$$$$
>  <MOLECULE>
CC(C)c1cccc(C(=O)O)n1

>  <MEASUREMENT_NAME>
melting point

>  <RECORDED_VALUE>
63 to 65 °C

$$$$
>  <MOLECULE>
Fc1ccc(-n2c(S)nc3ccccc32)cc1

>  <MEASUREMENT_NAME>
melting point

>  <RECORDED_VALUE>
237 to 239 °C

$$$$
>  <MOLECULE>
CC(C)(C)OC(=O)c1cc(C(=O)O)nn1-c1ccccc1

>  <MEASUREMENT_NAME>
melting point

>  <RECORDED_VALUE>
259 to 261 °C

$$$$
>  <MOLECULE>
NS(=O)(=O)C1CCCOC1 (centres undefined)

>  <MEASUREMENT_NAME>
melting point

>  <RECORDED_VALUE>
96 to 98 °C

$$$$
>  <MOLECULE>
CC(C)(C)n1cc(C(=O)O)cn1

>  <MEASUREMENT_NAME>
melting point

>  <RECORDED_VALUE>
155 to 157 °C

$$$$
>  <MOLECULE>
O=C(O)COc1ccc(C2SCCS2)cc1

>  <MEASUREMENT_NAME>
melting point

>  <RECORDED_VALUE>
137 to 139 °C

$$$$
>  <MOLECULE>
CC(=O)CSc1ccccc1[N+](=O)[O-]

>  <MEASUREMENT_NAME>
melting point

>  <RECORDED_VALUE>
74 to 76 °C

$$$$
>  <MOLECULE>
Clc1ccc2oc(C3CCNCC3)nc2c1

>  <MEASUREMENT_NAME>
melting point

>  <RECORDED_VALUE>
86 to 88 °C

$$$$
>  <MOLECULE>
Cc1ccc(-n2cnnc2SCC(=O)O)cc1

>  <MEASUREMENT_NAME>
melting point

>  <RECORDED_VALUE>
218 to 220 °C

$$$$
>  <MOLECULE>
Cc1ccc(C(=O)c2cccc(S(C)(=O)=O)c2)c(C)c1

>  <MEASUREMENT_NAME>
melting point

>  <RECORDED_VALUE>
83 to 85 °C

$$$$
>  <MOLECULE>
Cc1cc(C(=O)CCl)c(C)n1CC(N)=O

>  <MEASUREMENT_NAME>
melting point

>  <RECORDED_VALUE>
218 to 220 °C

$$$$
>  <MOLECULE>
COC(=O)c1cc(F)ccc1CBr

>  <MEASUREMENT_NAME>
melting point

>  <RECORDED_VALUE>
41 to 43 °C

$$$$
>  <MOLECULE>
Nc1cc(C(=O)N2CCCCC2)ccc1Cl

>  <MEASUREMENT_NAME>
melting point

>  <RECORDED_VALUE>
135 to 137 °C

$$$$
>  <MOLECULE>
O=C(CCl)NCCc1nc2ccccc2s1

>  <MEASUREMENT_NAME>
melting point

>  <RECORDED_VALUE>
90 to 92 °C

$$$$
>  <MOLECULE>
CC(=O)c1c(C)[nH]c(C(=O)C(C)Cl)c1C (centres undefined)

>  <MEASUREMENT_NAME>
melting point

>  <RECORDED_VALUE>
152 to 154 °C

$$$$
>  <MOLECULE>
O=C(O)Cc1ccc(S(=O)(=O)CC(F)F)cc1

>  <MEASUREMENT_NAME>
melting point

>  <RECORDED_VALUE>
135 to 137 °C

$$$$
>  <MOLECULE>
CC(C(=O)O)c1cccc(F)c1 (centres undefined)

>  <MEASUREMENT_NAME>
melting point

>  <RECORDED_VALUE>
59 to 61 °C

$$$$
>  <MOLECULE>
Cc1sc2ccc(Cl)cc2c1S(=O)(=O)Cl

>  <MEASUREMENT_NAME>
melting point

>  <RECORDED_VALUE>
148 to 150 °C

$$$$
>  <MOLECULE>
O=C1CCc2cc(Br)ccc2N1

>  <MEASUREMENT_NAME>
melting point

>  <RECORDED_VALUE>
169 to 171 °C

$$$$
>  <MOLECULE>
O=C(O)c1cc(/C=C/c2ccc(F)cc2)nc2ccc(Br)cc12

>  <MEASUREMENT_NAME>
melting point

>  <RECORDED_VALUE>
299 to 301 °C

$$$$
>  <MOLECULE>
O=S(=O)(c1ccc2c(c1)CCCN2)N1CCCC1

>  <MEASUREMENT_NAME>
melting point

>  <RECORDED_VALUE>
130 to 132 °C

$$$$
>  <MOLECULE>
Nc1cnn(CC(=O)O)c1

>  <MEASUREMENT_NAME>
melting point

>  <RECORDED_VALUE>
206 to 208 °C

$$$$
>  <MOLECULE>
CN(C)Cc1ccc(C(N)=O)cc1N

>  <MEASUREMENT_NAME>
melting point

>  <RECORDED_VALUE>
156 to 158 °C

$$$$
